Each entry below carries its recorded protein stability index.
B1: MATN2 (parent)
chain: FSLKTFKRKSEVERAVKRMRHLST

Variants of: B1
Assay: protein stability index of a GFP-peptide fusion (GPS, HEK-293T) (PSI 1-6); higher = more stable;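 also: lentivirally expressed fusions sorted by FACS into six bins by GFP to DsRed ratio, PSI derived from sequencing read proportions per bin multiplied by bin number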
Conditions: c terminus: a fixed tail appended
Hey, just send me the number, nothing else.

Take a look at these entries with their results.
>  <Mutation>
R18L

>  <Parameter>
protein stability index

>  <Value Reported>
1.97

$$$$
>  <Mutation>
R14L

>  <Parameter>
protein stability index

>  <Value Reported>
1.96

$$$$
>  <Mutation>
V12F

>  <Parameter>
protein stability index

>  <Value Reported>
1.4

$$$$
>  <Mutation>
K9T

>  <Parameter>
protein stability index

>  <Value Reported>
2.09

$$$$
>  <Mutation>
S2T

>  <Parameter>
protein stability index

>  <Value Reported>
1.99

$$$$

In: Which protein stability index reading was recorded for the variant K4C ?
Out: 1.74

In: Recorded protein stability index for S10R , please?
Out: 2.46

In: Any idea what its protein stability index is? The variant is K9R
Out: 1.84
